molecular target: Sodium channel protein type 9 subunit alpha (Homo sapiens, UniProt Q15858); assay: Inhibition of human Nav1.7 expressed in HEK cells assessed as reduction in sodium current at -60 mV holding potential by PatchXpress platform based whole cell patch clamp electrophysiological assay
Sequence (Q15858 whole entry): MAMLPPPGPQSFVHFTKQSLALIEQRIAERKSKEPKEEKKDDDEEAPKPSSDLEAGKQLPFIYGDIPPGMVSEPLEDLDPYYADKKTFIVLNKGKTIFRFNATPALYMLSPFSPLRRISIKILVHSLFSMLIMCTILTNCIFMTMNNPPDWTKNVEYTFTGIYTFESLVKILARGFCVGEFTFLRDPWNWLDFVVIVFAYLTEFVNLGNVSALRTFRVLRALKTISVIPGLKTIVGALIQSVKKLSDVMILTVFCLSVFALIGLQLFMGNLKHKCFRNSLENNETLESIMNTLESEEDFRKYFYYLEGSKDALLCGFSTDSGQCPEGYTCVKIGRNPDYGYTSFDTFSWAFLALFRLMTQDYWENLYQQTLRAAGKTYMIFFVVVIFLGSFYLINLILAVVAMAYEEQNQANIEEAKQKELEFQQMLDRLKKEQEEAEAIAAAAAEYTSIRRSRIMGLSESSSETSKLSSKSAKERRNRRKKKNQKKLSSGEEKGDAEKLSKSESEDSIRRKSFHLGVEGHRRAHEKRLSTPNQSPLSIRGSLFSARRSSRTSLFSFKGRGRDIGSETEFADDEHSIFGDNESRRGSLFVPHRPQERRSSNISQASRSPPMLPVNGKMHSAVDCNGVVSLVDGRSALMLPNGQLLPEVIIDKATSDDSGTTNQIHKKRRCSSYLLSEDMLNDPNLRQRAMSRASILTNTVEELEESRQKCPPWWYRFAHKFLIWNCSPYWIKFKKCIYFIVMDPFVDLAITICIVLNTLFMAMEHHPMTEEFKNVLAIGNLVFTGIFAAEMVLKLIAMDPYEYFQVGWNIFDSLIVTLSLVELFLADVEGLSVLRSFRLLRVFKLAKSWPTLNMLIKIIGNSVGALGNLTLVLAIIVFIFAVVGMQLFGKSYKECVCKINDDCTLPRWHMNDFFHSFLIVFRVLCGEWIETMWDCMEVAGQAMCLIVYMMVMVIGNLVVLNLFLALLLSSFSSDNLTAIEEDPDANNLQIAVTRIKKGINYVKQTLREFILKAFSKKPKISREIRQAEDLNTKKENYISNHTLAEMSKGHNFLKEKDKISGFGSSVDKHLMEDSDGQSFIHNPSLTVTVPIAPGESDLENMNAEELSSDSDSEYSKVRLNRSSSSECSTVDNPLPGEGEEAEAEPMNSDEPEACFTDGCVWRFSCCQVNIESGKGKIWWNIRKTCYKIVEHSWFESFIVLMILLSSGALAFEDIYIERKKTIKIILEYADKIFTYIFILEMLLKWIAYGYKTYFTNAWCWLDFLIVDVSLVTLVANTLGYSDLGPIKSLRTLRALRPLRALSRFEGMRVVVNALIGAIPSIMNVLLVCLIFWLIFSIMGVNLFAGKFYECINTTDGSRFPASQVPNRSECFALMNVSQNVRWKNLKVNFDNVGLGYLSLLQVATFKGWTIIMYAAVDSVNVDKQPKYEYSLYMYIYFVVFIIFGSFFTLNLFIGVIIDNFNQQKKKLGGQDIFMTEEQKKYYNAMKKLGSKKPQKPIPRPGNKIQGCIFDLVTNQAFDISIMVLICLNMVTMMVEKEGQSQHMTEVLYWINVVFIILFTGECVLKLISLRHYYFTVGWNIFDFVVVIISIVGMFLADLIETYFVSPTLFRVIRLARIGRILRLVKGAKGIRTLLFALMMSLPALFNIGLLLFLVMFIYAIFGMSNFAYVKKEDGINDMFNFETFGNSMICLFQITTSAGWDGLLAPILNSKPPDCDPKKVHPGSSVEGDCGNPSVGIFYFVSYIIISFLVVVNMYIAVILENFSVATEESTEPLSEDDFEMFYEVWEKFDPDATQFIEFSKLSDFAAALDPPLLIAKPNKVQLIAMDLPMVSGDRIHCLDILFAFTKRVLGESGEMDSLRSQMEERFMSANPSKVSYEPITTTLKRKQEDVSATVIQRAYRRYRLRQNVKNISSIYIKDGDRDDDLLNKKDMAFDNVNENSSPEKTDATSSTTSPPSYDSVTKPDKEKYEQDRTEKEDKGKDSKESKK
# strict inequality: IC50 < 40 nM yields class 1, everything else yields class 0

These solved cases illustrate the format of a correct answer.
Cc1nsc(NS(=O)(=O)c2cc(F)c(OC[C@@H]3CNCC[C@H]3c3ccc(Cl)cc3)cc2F)n1 (relative stereo)	class 0
CN1CC[C@@H](c2ccc(Cl)cc2)[C@H](COc2cc(F)c(S(=O)(=O)Nc3ncns3)cc2F)C1 (relative stereo)	class 1
O=C1C[C@@H](c2ccc(F)cc2)[C@H](COc2cc(F)c(S(=O)(=O)Nc3ncns3)cc2F)CN1 (relative stereo)	class 0

Input: I wonder whether O=S(=O)(Nc1ccc(F)cn1)c1cc(F)c(OC[C@@H]2CNCC[C@H]2c2ccc(Cl)cc2)cc1F (relative stereo) has IC50 below 40 nM. Can you tell?
Output: class 0

Input: Cool, now Cc1cc(NS(=O)(=O)c2cc(F)c(OC[C@@H]3CNCC[C@H]3c3ccc(Cl)cc3)cc2F)no1 (relative stereo)
Output: class 0

Input: Also, O=S(=O)(Nc1ncns1)c1cc(F)c(OC[C@@H]2CN(CC(F)F)CC[C@H]2c2ccc(Cl)cc2)cc1F (relative stereo) please.
Output: class 1

Input: And "CN1CC[C@H](c2ccc(Cl)cc2)[C@@H](COc2cc(F)c(S(=O)(=O)Nc3ncns3)cc2F)C1" ?
Output: class 1

* * *

target: Sodium channel protein type 5 subunit alpha (Homo sapiens); experiment: Inhibition of human Nav1.5 expressed in HEK cells assessed as reduction in sodium current at -60 mV holding potential by PatchXpress platform based whole cell patch clamp electrophysiological assay; design: species or system HEK293; conditions: hek293
Sequence (Q14524 whole entry): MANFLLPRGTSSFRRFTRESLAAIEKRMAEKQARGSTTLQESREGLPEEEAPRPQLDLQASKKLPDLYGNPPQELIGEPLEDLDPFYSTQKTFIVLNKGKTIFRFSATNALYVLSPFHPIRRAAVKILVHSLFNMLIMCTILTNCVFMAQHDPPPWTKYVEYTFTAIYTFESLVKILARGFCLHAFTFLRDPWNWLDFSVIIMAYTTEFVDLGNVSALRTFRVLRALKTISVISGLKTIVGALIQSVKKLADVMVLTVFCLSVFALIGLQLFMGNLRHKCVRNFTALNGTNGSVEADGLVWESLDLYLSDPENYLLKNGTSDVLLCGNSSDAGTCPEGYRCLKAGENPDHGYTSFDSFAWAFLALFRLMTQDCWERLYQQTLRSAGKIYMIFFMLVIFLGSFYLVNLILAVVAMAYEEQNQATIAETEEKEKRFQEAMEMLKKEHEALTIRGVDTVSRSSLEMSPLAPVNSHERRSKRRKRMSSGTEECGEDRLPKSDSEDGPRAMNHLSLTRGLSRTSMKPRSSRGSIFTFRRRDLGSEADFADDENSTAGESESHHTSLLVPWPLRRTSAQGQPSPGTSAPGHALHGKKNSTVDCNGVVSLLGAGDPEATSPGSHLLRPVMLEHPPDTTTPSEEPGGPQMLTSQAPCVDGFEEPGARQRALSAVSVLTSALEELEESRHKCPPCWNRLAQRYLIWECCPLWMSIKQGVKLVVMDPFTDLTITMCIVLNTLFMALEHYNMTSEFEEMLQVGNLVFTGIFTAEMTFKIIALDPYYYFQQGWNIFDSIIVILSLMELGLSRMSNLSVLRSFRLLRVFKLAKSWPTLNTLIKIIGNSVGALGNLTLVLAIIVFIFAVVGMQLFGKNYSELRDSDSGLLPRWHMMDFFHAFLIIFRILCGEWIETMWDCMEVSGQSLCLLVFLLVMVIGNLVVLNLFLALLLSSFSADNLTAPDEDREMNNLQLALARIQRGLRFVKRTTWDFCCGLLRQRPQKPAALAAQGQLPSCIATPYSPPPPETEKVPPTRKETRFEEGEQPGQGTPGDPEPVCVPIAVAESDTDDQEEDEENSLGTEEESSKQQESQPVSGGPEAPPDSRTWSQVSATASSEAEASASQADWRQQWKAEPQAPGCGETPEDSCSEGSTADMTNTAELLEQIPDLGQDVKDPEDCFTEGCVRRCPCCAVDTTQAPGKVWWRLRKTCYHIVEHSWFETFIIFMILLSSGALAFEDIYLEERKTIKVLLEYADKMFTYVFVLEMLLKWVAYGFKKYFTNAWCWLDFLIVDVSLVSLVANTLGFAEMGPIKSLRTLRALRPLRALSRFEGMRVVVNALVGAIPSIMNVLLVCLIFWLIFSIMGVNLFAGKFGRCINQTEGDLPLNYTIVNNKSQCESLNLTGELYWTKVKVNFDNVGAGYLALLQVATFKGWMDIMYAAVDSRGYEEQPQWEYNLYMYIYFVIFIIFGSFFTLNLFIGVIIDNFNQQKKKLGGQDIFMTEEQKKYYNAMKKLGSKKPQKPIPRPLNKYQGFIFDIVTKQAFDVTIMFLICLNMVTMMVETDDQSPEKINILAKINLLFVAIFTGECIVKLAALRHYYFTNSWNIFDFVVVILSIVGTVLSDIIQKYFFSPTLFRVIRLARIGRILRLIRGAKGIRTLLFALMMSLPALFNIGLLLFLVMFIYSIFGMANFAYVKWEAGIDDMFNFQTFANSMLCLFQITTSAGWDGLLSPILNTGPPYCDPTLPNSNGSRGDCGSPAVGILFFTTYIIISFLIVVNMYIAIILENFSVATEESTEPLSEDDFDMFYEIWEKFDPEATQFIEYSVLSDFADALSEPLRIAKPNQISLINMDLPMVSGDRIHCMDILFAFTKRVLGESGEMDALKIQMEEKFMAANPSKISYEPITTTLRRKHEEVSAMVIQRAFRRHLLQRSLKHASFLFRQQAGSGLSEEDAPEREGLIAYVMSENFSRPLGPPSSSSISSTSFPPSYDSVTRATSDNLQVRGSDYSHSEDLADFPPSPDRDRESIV
readout: IC50

Input: Notebook entry, Sodium channel protein type 5 subunit alpha (Homo sapiens) assay: IC50 of "CN1CC[C@@H](c2ccc(Cl)cc2)[C@H](COc2cc(F)c(S(=O)(=O)Nc3ncns3)cc2F)C1" = ?
Output: > 10 µM

* * *

biological target: CYP2D6 (Homo sapiens, UniProt P10635); test: Inhibition of CYP2D6 (unknown origin) using bufuralol substrate at 10 uM; type: ADME; conditions: probe bufuralol
Sequence (P10635 whole entry): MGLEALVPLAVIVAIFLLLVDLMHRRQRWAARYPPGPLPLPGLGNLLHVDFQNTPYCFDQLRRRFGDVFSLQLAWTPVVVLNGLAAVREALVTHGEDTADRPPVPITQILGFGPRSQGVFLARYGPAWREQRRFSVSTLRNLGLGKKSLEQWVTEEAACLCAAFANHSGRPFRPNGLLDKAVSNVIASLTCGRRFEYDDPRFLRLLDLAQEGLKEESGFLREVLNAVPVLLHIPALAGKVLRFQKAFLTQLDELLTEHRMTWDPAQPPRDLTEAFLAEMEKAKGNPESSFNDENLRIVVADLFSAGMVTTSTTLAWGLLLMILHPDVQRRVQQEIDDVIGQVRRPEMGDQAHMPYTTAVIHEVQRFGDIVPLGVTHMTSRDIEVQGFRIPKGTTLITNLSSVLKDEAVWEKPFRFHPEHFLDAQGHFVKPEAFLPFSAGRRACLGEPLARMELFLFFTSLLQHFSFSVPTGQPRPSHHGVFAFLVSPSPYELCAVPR
inhibition at 10 µM of 40% or higher: TRUE. Under 40%: FALSE.

# example entries with known answers
O=S(=O)(Nc1ccc(F)cn1)c1cc(F)c(OC[C@@H]2CNCC[C@H]2c2ccc(Cl)cc2)cc1F (relative stereo)	TRUE
O=S(=O)(Nc1ncns1)c1cc(F)c(OC[C@@H]2CN(CC(F)F)CC[C@H]2c2ccc(Cl)cc2)cc1F (relative stereo)	TRUE
O=S(=O)(Nc1ncns1)c1cc(F)c(OCC2(F)CNCCC2c2ccc(F)cc2)cc1F (configuration not stated)	TRUE

Input: Textbook exercise: given the entry O=S(=O)(Nc1ncccn1)c1cc(F)c(OC[C@@H]2CNCC[C@H]2c2ccc(Cl)cc2)cc1F (relative stereo) , state whether its inhibition at 10 µM is greater than or equal to 40%.
Output: FALSE

Input: Then O=S(=O)(Nc1ncns1)c1cc(F)c(OC[C@@H]2CNCC[C@H]2c2ccc(F)cc2)cc1F (relative stereo) ?
Output: TRUE

Input: And then Cc1cc(NS(=O)(=O)c2cc(F)c(OC[C@@H]3CNCC[C@H]3c3ccc(Cl)cc3)cc2F)no1 (relative stereo) , what is it?
Output: FALSE
